The measured values listed here are drawn from paper PMC4336329.

# Experimental system: human ether-à-go-go-related gene (hERG) potassium channel (human, UniProt Q12809);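 further: peak tail current of the secondary pulse compared with the same well before compound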
# Sequence (Q12809 whole entry, looked up): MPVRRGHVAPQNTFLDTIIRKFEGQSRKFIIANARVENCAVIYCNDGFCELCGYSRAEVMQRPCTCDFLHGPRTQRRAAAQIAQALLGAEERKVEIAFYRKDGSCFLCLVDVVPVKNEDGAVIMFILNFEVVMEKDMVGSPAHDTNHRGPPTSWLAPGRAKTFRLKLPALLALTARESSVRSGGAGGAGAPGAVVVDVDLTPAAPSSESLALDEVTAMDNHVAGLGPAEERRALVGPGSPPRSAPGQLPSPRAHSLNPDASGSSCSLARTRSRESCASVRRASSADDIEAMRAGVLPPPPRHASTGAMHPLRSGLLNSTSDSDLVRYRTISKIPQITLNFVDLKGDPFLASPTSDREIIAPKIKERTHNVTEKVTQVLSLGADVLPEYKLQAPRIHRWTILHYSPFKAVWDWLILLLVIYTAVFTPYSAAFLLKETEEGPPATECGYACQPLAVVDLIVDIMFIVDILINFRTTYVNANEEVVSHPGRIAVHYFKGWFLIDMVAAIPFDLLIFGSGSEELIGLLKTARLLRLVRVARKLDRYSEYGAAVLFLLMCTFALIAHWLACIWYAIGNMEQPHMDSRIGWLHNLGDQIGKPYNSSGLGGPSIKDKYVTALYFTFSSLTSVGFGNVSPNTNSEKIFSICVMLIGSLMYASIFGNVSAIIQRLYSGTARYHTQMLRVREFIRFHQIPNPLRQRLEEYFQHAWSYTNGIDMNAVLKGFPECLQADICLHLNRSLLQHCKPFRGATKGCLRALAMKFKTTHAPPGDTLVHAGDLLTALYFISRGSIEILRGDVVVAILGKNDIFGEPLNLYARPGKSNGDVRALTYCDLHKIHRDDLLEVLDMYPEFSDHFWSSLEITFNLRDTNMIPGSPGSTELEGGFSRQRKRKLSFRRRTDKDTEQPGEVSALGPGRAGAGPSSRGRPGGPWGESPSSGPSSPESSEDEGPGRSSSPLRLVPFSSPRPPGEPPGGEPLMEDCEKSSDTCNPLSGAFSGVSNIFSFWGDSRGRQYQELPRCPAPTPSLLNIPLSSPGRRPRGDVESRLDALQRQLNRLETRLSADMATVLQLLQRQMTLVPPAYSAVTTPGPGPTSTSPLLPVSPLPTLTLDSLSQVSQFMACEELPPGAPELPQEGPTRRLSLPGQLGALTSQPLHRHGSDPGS
# Run description: primary screen, population patch clamp on CHO cells stably expressing hERG; higher = less effect of the substance
Screen size: about 310,000 compounds; about 14,000 (4.5%) showed an effect of 50% or more. The effect is printed as a negative number. The sample as a whole holds a higher share of strong results than the screen did.
Items are presented alongside their recorded hERG current change (%, negative = inhibition) at 10uM.
Readout type: hERG current change (%, negative = inhibition) at 10uM (%)

O=C(NCc1ccccc1)C1=C[C@@H](c2ccc(Br)cc2)C[C@@H](OCCCCO)O1 | -36.8
Cc1cccc(C)c1OC(=O)Cc1ccccc1[N+](=O)[O-] | -4.62
CC(C(=O)Nc1cccnc1)n1cc([N+](=O)[O-])cn1 (centres unmarked) | 17.7
O=C(Cn1ccc([N+](=O)[O-])n1)Nc1nc2ccccc2s1 | -45.8
O=C(c1cccnc1Cl)N(Cc1ccccc1)Cc1ccccc1 | -17.7
Cc1cccc(NC(=O)C(C)n2cc([N+](=O)[O-])cn2)n1 (centres unmarked) | -7.48
CCCc1cc(=O)[nH]c(SCC(=O)Nc2nonc2N)n1 | -5.4
Cc1ccc(S[C@@H](CCN2CC[C@H](NC(=O)OCc3ccccc3)CCC2=O)c2ccccc2)cc1 | -26.1
Nc1ncnc(Nc2cccc(C(F)(F)F)c2)n1 | -5.45
COC(=O)[C@@]1(Cc2ccccc2)C=C[C@@H](C)N1C(C)=O | 2.06
COc1ccc(C2=NS(=O)(=O)N(C)C(C(=O)NCc3ccccn3)=C2)cc1OC | -4.15
O=C(Cn1cc([N+](=O)[O-])cn1)Nc1ccccn1 | 16.1
CCOC(=O)c1cccc(Nc2ncnc3ccccc23)c1.Cl | -24.9
COC(=O)c1cccc(Nc2ncnc3ccc(C)cc23)c1 | -20.9
CC(=O)Nc1ccc(S(=O)(=O)N2CCC(C(=O)NC3CCCC3)CC2)cc1 | -0.813
COc1ccc(CCN2CN(S(=O)(=O)c3ccccc3)c3nc4ccccc4nc32)cc1OC | -0.784
O=C(NCC(=O)N1CCCC(C(F)(F)F)C1)c1ccc2ccccc2c1 (centres unmarked) | -11.3
CC(C)C[C@@H](CO)N(Cc1ccccc1)S(=O)(=O)N(Cc1ccccc1)[C@@H](CO)CC(C)C | 7.47
CCOc1ccc(Cl)cc1S(=O)(=O)NC1CCCC1 | -3.26
CC(=O)Nc1ccc(NC(=O)CSc2ccc(-c3cccnc3)nn2)cc1 | 24.7

###

List of hERG current change (%, negative = inhibition) at 10uM values.
# Experimental system: human ether-à-go-go-related gene (hERG) potassium channel (human);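 further: peak tail current of the secondary pulse compared with the same well before compound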
# Run description: primary screen, population patch clamp on CHO cells stably expressing hERG; higher = less effect of the substance
Among all 310,000 compounds or so, about 14,000 (4.5%) showed an effect of 50% or more. Effects have a minus sign here. What follows is part of a selection rich in strong results, with near analogues and random picks from the rest.
Readout type: hERG current change (%, negative = inhibition) at 10uM

COC(=O)[C@@H](NC(=O)N(C1CCCCC1)C1CCCCC1)C(C)C | -7.86%
O=C1N(Cc2cccnc2)C[C@@H]2C[C@@H](c3ccccc3C(F)(F)F)N3CCC[C@@]123 | -11.2%
Cc1ccccc1-c1cccc([C@@H]2C[C@H]3CN(Cc4cccnc4)C(=O)[C@]34CCCN24)c1 | -59%
COc1ccccc1CN1C[C@@H]2C[C@@H](c3ccc(C)cc3)N3CCC[C@@]23C1=O | -43.6%

###

# Experimental system: human ether-à-go-go-related gene (hERG) potassium channel (human, UniProt Q12809);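 further: peak tail current of the secondary pulse compared with the same well before compound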
# Run description: primary screen, population patch clamp on CHO cells stably expressing hERG; higher = less effect of the substance
Hit rate of the full screen: of about 310,000 compounds, about 14,000 (4.5%) showed an effect of 50% or more. Effects have a minus sign here. The list comes from a sample in which strong results are over-represented; it also holds close analogues and randomly drawn compounds.
Entries annotated with measured hERG current change (%, negative = inhibition) at 10uM
Readout type: hERG current change (%, negative = inhibition) at 10uM (%)

CC1=CC(C)(C)Nc2ccc(OC(=O)c3ccco3)cc21 | -0.0756
Cc1ccc(C(=O)NCC(=O)OCCCn2c(=O)[nH]c3ccccc32)cc1 | -14.8
CCC(c1nnnn1Cc1ccc(OC)cc1)N1CCN(C(=O)c2ccco2)CC1.Cl (stereo not shown) | -55.5
O=C(N/N=C/C=C/c1ccccc1)c1n[nH]c2c1CCC2 | 9.22
CCC(c1nnnn1Cc1ccco1)N1CCN(C(=O)c2ccco2)CC1.Cl (stereo not shown) | -20.6
CCc1nc2c(n1O)CCc1nonc1-2 | 4.58
CCC(C)(C)n1nnnc1C(C(C)C)N1CCN(C(=O)c2ccco2)CC1 (stereo not shown) | -29.7
CCCCC(c1nnnn1Cc1ccco1)N1CCN(C(=O)c2ccco2)CC1.Cl (stereo not shown) | -51.8
CCC(c1nnnn1CCc1ccccc1)N1CCN(C(=O)c2ccco2)CC1.Cl (stereo not shown) | -28
CCCC(c1nnnn1CCc1ccccc1)N1CCN(C(=O)c2ccco2)CC1 (stereo not shown) | -49.3

###

# Experimental system: human ether-à-go-go-related gene (hERG) potassium channel (human);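 further: peak tail current of the secondary pulse compared with the same well before compound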
# Run description: primary screen, population patch clamp on CHO cells stably expressing hERG; higher = less effect of the substance
The whole screen tested about 310,000 compounds, of which about 14,000 (4.5%) showed an effect of 50% or more. The effect is printed as a negative number. The full list was thinned out, with strong results kept by preference. Where a SMILES comes first, the peptide text is derived from it.
Hi, to clarify the labels: label 1 covers hERG current change (%, negative = inhibition) at 10uM from -20% upward, label 0 covers anything below -20%.

CCC(=O)Nc1cccc(C(=O)/C=C/c2cccs2)c1 | label 1
OCCC1CN(Cc2cccn2-c2nccs2)CCN1Cc1ccccc1 (stereo not drawn) | label 0
Cc1cc(-c2ccccc2)nc2cc(C(=O)NCCCn3ccnc3)nn12 | label 0
NNC(=O)c1ccc(Cl)cc1 | label 1
C=CCNC(=O)C1CCN(c2ccc(S(=O)(=O)N3CCOCC3)cc2[N+](=O)[O-])CC1 | label 0
OCCC1CN(Cc2cccn2-c2nccs2)CCN1C1CCCCC1 (stereo not drawn) | label 0
Cn1c(=O)c2c(ncn2CC(COCc2ccccc2)OCc2ccccc2)n(C)c1=O (stereo not drawn) | label 1
C=C[C@H]1CN2CC[C@H]1C[C@@H]2[C@@H](O)c1ccnc2ccccc12 | label 0
Cn1cnnc1SCC(=O)NCCC(c1ccccc1)c1ccccc1 | label 1
CC(=O)NC(Cc1ccccc1C)C(=O)NC1CCN(C(=O)c2cccc(C)c2)CC1 (stereo not drawn) | label 1
Cc1cccc(-c2cc3nc(C)cc(NCCCN(C)C)n3n2)c1 | label 0
CC(C)[C@H](NC(=O)C1CCN(S(=O)(=O)c2ccccc2)CC1)C(=O)NCc1ccccc1 | label 1
COc1ccc(-c2csc3nc(-c4ccccc4)oc(=O)c23)cc1OC | label 1
O=Cc1cc(-c2ccccc2)[nH]c1-c1ccccc1 | label 1
COc1ccc(CCNC(=O)Cn2nnc(-c3ccccc3F)n2)cc1OC | label 1
O=C(COC(=O)c1ccc(Br)o1)Nc1ncc([N+](=O)[O-])s1 | label 1
OCCC1CN(Cc2cccn2-c2nccs2)CCN1CCc1ccccc1 (stereo not drawn) | label 0
Cc1cc(NCCCn2ccnc2)n2nc(-c3ccc(Cl)cc3)cc2n1 | label 0
CC1(O)N(Cc2ccccc2)C(=O)OC12CCCCC2 (stereo not drawn) | label 1
Cc1ccc(F)cc1NC(=O)c1sc2ncn(CC(=O)N3CCN(c4ccccn4)CC3)c(=O)c2c1C | label 1
NC(=O)CN1C(=O)C(=O)N(Cc2ccccc2Cl)C1=O | label 1
COc1ccc(-c2cc3nc(C)cc(NCCO)n3n2)cc1 | label 0
CCc1nc(SCC(=O)Nc2cc(OC)ccc2OC)c2c(C)c(C)sc2n1 | label 1
CC1(C)CC(=O)C(C(=O)c2ccccc2)C(=O)C1Cl (stereo not drawn) | label 1
CC(=O)Nc1ccc(C=C(C(C)=O)C(C)=O)cc1 | label 1
Cc1cc(NCCCn2ccnc2)n2nc(-c3ccc(F)cc3)cc2n1 | label 1
CN(C)C=O.NS(=O)(=O)c1cccc(NC(=O)CSc2nc3nc(-c4cccs4)cc(C(F)(F)F)c3c(=O)[nH]2)c1 | label 1
CC(=O)NC(Cc1ccccc1)C(=O)NC(Cc1ccccc1)C(=O)O (stereo not drawn) (Ac-Phe-Phe-OH; configuration not given here) | label 1
CCOc1ccccc1N1C(=O)NC(=O)/C(=C/c2ccc3c4c(cccc24)CC3)C1=O | label 1
CC(=O)N1CCN(CCN2C(C)=CC(=C(C#N)C#N)C=C2C)CC1 | label 1
CC(C)CCN1CCN(Cc2cccn2-c2nccs2)CC1CCO (stereo not drawn) | label 0
O=C(NCc1ccco1)C1CCN(c2ccc(S(=O)(=O)N3CCOCC3)cc2[N+](=O)[O-])CC1 | label 0
CCCCN(C)C(=O)C1CCN(c2ccc(S(=O)(=O)N3CCOCC3)cc2[N+](=O)[O-])CC1 | label 0
Cn1c(=O)c2c(ncn2CC(COCc2ccc(Cl)cc2)OCc2ccc(Cl)cc2)n(C)c1=O (stereo not drawn) | label 0
COc1c(C)cc(C(=O)C2CCCN(Cc3cnc(N4CCOCC4)s3)C2)cc1C (stereo not drawn) | label 1
C=C[C@H]1CN2CC[C@H]1C[C@H]2[C@H](O)c1ccnc2ccccc12 | label 0
O=C(CN1C(=O)C2CC=CCC2C1=O)NCC1COc2ccccc2O1 (stereo not drawn) | label 1
C=CC1CN2CCC1CC2[C@@H](OC(=O)c1ccc(OC)cc1)c1ccnc2ccccc12 (stereo partly drawn) | label 0
Cc1cccc(-c2cc3nc(C)c(C)c(NCCCn4ccnc4)n3n2)c1 | label 0
